experiment: yeast display, Sf9 membrane polyspecificity reagent, FACS + sequencing; frameworks hold sequencing errors
REPORTED_ENDPOINT: polyreactivity (PSR sort gate)

Observe how each entry below is paired with its result.
QVQLVESGGGLVQAGGSLRLSCAASGSIFGRYAMGWYRQAPGKERELVAAITRSGVSTYYADSVKGRFTISGDYAKNTVYLQMNSLKPEETAVYYCNAYYRIRSSPYGYYYWGEGTQVTVSS | high polyreactivity
QVQLVESGGGLVQAGGSLRLSCAASGSIFSQYAMGWYRQAPGKERELVAAITYGGGSTYYADSVKGRFTISRDNAKNTVYLQMNCLKAEDTALYYCAKEFKYWGYPYDYWGQGTQVTVSS | low polyreactivity
QVQLVESGGGLVQAGGSLRLSCAASGSTFHYYAMGWYRQAPGKERELVAAISQSGSGTYYADSVKGRFTISRDNAKNTVYLLMNSLKPEDTAVYYCAKDITGLSRYRRDYWGQGTQVTVSS | low polyreactivity
QVQLVESGGGLVQAGGSLRLSCAASGSIFSFYTMGWYRQAPGKERELVAAINWSGSRTYYADSVKGRFTISRDNAKKTVYLQMNSLNPEDTAVYYCAARKYYSRAYDYWGQGTQVTVSS | high polyreactivity
QVQLVESGGGLVQAGGSLRLSCAASGRTFSVYTMGWYRQAPGKERELVASINWSGGRTYYADSVKGRFTISRDNAKNSVYLQMNSLKPEDTAVYYCAATGWRTLYDYWGQGTQVTVSS | high polyreactivity
QVQLVESGGGLVQAGGSLRLSCAASGGIFGIYAMGSYRQAPGKERELVAAINGGTSTYYADSVKGRFTISRDNAKNTVYLQMNSLKPEDTAVYYCAADWRYLYYALDYWGQGTQVTVSS | low polyreactivity

The reported value for "QVQLVESGGGLVQAGGSLRLSCAASGRTFWYYGMGWYRQAPGKERELVAAIRGSGGSTYYADSVKGRFTISRDNAKNTVYLQMNSLKPEDTAVYYCAKRSYIRPKYTYEYWGQGTQVTVSS" in terms of polyreactivity (PSR sort gate) is high polyreactivity

For this sequence ( "QVQLVESGGGLVQAGGSLRLSCAASGRIFLGYAMGRYRPARGKERELVAAISTSGGSTYYADSVKGRFTISRDNAKNTVYLQMNSLKPEDTAVYYCAARNVRTYVTGVDYDYWGQGTQVTVSS" ), measured polyreactivity (PSR sort gate) is high polyreactivity

Per the records, this sequence ( "QVQLVESGGGLVQAGGSLRLSCAASGRTFHRYVMGWYRQAPGKERELVAAITRSGGITYYADSVKGRFTISRDNAKNTVYLQMNSLKPEDNAVYYCAKDDLTASGFDYWGQGTQVTVSS" ) has polyreactivity (PSR sort gate) equal to low polyreactivity
